Target: panel of more than 300 wild-type and mutant kinases (313 kinase panel) (Homo sapiens, UniProt P16234, V561D)
Sequence (P16234 24-1089 V561D): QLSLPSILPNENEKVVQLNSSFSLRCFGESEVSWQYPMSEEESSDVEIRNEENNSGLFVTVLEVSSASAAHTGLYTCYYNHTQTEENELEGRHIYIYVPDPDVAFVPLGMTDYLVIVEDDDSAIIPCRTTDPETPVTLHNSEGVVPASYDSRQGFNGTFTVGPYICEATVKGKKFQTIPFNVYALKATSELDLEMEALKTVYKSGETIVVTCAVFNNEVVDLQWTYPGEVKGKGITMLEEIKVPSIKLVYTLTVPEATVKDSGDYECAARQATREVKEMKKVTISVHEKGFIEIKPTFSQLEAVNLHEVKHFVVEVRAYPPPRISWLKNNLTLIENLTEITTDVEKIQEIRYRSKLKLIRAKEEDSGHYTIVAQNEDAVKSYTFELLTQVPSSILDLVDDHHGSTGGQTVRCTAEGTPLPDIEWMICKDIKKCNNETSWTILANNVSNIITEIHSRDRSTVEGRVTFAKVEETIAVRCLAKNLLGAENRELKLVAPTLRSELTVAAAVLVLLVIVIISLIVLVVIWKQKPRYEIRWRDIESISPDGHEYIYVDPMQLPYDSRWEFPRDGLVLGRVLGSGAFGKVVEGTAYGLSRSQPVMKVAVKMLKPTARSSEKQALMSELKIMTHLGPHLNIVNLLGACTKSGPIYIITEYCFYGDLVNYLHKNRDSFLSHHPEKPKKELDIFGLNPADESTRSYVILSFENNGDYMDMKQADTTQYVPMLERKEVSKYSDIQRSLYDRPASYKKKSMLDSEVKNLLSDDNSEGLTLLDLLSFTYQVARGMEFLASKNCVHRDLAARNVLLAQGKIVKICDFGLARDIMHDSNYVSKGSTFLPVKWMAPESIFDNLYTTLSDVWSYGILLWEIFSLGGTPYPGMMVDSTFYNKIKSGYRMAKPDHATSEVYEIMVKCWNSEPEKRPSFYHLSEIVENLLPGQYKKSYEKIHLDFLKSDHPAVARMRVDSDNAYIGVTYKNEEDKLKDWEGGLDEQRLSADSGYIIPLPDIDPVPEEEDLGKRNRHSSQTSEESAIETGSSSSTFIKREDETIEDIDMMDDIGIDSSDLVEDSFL
Assay: Kinase profiling in a biochemical assay panel (mobility shift assays and ELISA), %-inhibition at 1 μM; selectivity entropy
Settings: kinase PDGFRα(V561D); 1 μM
RESULT TYPE: %-inhibition of PDGFRα(V561D)
Note: state the figure and append the unit.

# TEST SMILES, %-inhibition of PDGFRα(V561D)
rows = [
    ("COc1cc(Nc2c(C#N)cnc3cc(OCCCN4CCN(C)CC4)c(OC)cc23)c(Cl)cc1Cl", "64%"),
    ("CC(C)(C)c1nc(-c2cccc(NS(=O)(=O)c3c(F)cccc3F)c2F)c(-c2ccnc(N)n2)s1", "51%"),
    ("CC(=O)Nc1cccc(-n2c(=O)n(C3CC3)c(=O)c3c(Nc4ccc(I)cc4F)n(C)c(=O)c(C)c32)c1", "2.22%"),
]

Item: `Cc1ccc(C(=O)Nc2ccc(CN3CCN(C)CC3)c(C(F)(F)F)c2)cc1C#Cc1cnc2cccnn12` | %-inhibition of PDGFRα(V561D): 103%

Item: `N#CC[C@H](C1CCCC1)n1cc(-c2ncnc3[nH]ccc23)cn1` | %-inhibition of PDGFRα(V561D): 18%

Item: `O=S(=O)(c1cccc2cnccc12)N1CCCNCC1` | %-inhibition of PDGFRα(V561D): 9%

Item: `CO[C@H]1C[C@@H]2CC[C@@H](C)[C@@](O)(O2)C(=O)C(=O)N2CCCC[C@H]2C(=O)O[C@H]([C@H](C)C[C@@H]2CC[C@@H](OC(=O)C(C)(CO)CO)[C@H](OC)C2)CC(=O)[C@H](C)/C=C(\C)[C@@H](O)[C@@H](OC)C(=O)[C@H](C)C[C@H](C)/C=C/C=C/C=C/1C` | %-inhibition of PDGFRα(V561D): -4%

FYI, the data here is from paper PMC3961306.
